tested.system: TDP-43 (Homo sapiens, UniProt Q13148 1-414)
Sequence (Q13148 whole entry): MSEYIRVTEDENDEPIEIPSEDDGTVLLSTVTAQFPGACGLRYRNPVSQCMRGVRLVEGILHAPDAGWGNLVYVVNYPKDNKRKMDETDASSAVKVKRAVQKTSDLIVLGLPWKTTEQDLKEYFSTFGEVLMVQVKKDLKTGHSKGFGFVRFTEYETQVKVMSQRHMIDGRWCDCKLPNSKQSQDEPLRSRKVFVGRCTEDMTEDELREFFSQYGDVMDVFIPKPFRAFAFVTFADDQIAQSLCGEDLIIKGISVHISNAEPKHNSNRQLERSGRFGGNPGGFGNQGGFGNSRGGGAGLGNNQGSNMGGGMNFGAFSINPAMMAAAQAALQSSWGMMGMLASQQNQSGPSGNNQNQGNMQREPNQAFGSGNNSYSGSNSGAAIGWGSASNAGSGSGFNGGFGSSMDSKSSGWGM
method.notes: RNA Bind-n-Seq with designed 260-mer pool; 25 mM Tris-HCl, 150 mM KCl, 3 mM MgCl2, BSA (printed 500 mg/mL), 20 units/mL SUPERase IN; pH not stated; 500 nM RNA pool, 1 h, 4 C; TDP-43 5, 50, 500 nM; high values mean tight binding
stated.conditions: protein: recombinant; tags: SBP (GST cleaved off with PreScission; pGEX-GST-SBP)
Whole data set: some 9,900 sequences, median “r (bound/input frequency ratio)” near 0.7, cut for the highest 2% near 6.5. For the sample, the highest values were picked, then their nearest neighbours and some sequences at random.
experimental.endpoint: binding signal

State the recorded binding signal for this entry: ENSMUSG00000029636.33|Wasf3|33:37;79:83 (ssRNA) RNA: GGGAGUUCUACAGUCCGACGAUCGCUUCGAUAUCCGCAUGCUAUCCCUGUAGCUUUAGUCCCUUUUGUAUUAACACACACAUUUGCUUCUGCACAUCCUUCUGGAUUUGUUGAGUAUUUACACACAAAUACUUAAGUGCCACAGAACACAGCACACCGUGCUGCACACCAGGAAACUCGCAGUAUUAGUGCAUCACCCUGGAACAGCAUCUUGCUUCCCUCUCAGCCGUGAGAGUCCCCUCUCCUGUCCAUCCUGAUUUGGUGGGCUUGCCACGUAUCUGCGCAGCUGCCCCACGUCAGCUCUCUCUUGCGGUCGCACUAGUGUGGAAUUCUCGGGUGUCAAGG 0.758 R (bound/input frequency ratio)
